Target: full-length beta-Catenin (Uniprot ID P35222) (Homo sapiens (Human)) (UniProt P35222)
Sequence (P35222 2-781 limits assumed): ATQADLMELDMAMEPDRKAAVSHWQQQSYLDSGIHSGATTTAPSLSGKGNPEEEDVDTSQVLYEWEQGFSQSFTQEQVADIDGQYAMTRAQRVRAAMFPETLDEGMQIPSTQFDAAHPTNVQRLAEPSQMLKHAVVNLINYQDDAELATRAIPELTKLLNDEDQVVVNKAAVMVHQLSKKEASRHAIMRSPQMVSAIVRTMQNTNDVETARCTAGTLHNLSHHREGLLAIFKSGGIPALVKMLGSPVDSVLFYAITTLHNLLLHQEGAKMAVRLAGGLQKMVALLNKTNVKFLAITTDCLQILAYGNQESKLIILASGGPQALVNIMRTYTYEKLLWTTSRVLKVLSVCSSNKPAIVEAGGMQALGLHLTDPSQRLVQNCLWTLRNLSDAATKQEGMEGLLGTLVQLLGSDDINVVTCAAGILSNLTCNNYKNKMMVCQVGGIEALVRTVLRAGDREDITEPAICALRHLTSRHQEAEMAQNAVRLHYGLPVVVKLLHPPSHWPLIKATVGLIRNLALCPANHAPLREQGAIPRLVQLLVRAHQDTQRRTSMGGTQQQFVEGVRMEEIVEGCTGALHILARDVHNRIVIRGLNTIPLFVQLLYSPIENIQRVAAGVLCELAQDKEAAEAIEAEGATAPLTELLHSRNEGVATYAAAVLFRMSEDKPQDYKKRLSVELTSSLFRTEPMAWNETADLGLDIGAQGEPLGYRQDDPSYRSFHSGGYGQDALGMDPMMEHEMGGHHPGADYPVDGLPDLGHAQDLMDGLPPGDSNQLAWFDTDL
Assay: fluorescence polarization competition; 10 nM full-length beta-catenin + 10 nM 5FAM-TCF4(10-53) probe, peptide titrated 10 uM to 5 nM
Starred links: 1 amine or outer side, 2 acyl side, 3 side chain; linkers in the order of their positions; H or OH if unused. Positions of bridges follow the written chain, without caps; N, C: chain ends. Non-standard residues stand in square brackets, D forms with d. Primed or numbered codes have the meaning given here. PyrS2″ = (S)-3-amino-1-((pent-4-en-1-yloxy)carbonyl)pyrrolidine-3-carboxylic acid (stapling residue), C=CCCCOC(=O)N1CC[C@@](N[*:1])(C(=O)[*:2])C1; B5(30) = 2-amino-2-(pent-4-en-1-yl)hept-6-enoic acid (2,2-bis(4-pentenyl)glycine, stitching residue), C=CCCCC(CCCC=C)(N[*:1])C(=O)[*:2]; B5(4) = 2,2-bis(4-pentenyl)glycine = 2-amino-2-(pent-4-en-1-yl)hept-6-enoic acid (stitching residue), C=CCCCC(CCCC=C)(N[*:1])C(=O)[*:2]; B5(5) = 2,2-bis(4-pentenyl)glycine, 2-amino-2-(pent-4-en-1-yl)hept-6-enoic acid (stitching residue), C=CCCCC(CCCC=C)(N[*:1])C(=O)[*:2]; (3C)TriAzdLys = (R)-2-amino-6-(4-propyl-1H-1,2,3-triazol-1-yl)hexanoic acid, CCCc1cn(CCCC[C@@H](N[*:1])C(=O)[*:2])nn1; Phe(3-COOH) = N[C@@H](Cc1cccc(C(=O)O)c1)C(=O)O; Phe(2-CF3) = N[C@@H](Cc1ccccc1C(F)(F)F)C(=O)O; 2Nal = N[C@@H](Cc1ccc2ccccc2c1)C(=O)O; Bta = N[C@@H](Cc1csc2ccccc12)C(=O)O; αAllylPro = C=CC[C@@]1(C(=O)O)CCCN1; tBuAla = CC(C)(C)C[C@H](N)C(=O)O; hSer = N[C@@H](CCO)C(=O)O
Reported property: IC50 (nM)

Consider the worked cases shown below.
- Ac-[αAllylPro]D[tBuAla][B5(4)]D[Phe(3-COOH)]QAFL[PyrS2″][Phe(2-CF3)][2Nal]A-NH2 (staple 1-4, 4-11) [I-2461]: 75
- Ac-[αAllylPro]D[tBuAla][B5(30)]D[Phe(3-COOH)]AAFL[PyrS2″][Phe(2-CF3)][Bta]S[(3C)TriAzdLys]-NH2 (staple 1-4, 4-11; not fully specified; printed as Ac-PL3-Asp-Npg-B5-Asp-3COOHF-Ala-Ala-Phe-Leu-PyrS2-2F3MeF-BztA-Ser-[3C]TriAzdLys-NH2) [I-2444]: 121

[A] Ac-[αAllylPro]D[tBuAla][B5(4)]D[Phe(3-COOH)]QAFL[PyrS2″][Phe(2-CF3)][RbMeBztA]A-NH2 (staple 1-4, 4-11) [I-2459]
[B] Ac-[αAllylPro][hSer][tBuAla][B5(5)]DQAAFL[PyrS2″]F[Bta]Q-NH2 (staple 1-4, 4-11) [I-2443]
Please indicate which has the smaller reported IC50: A , or B . Respond with the label that goes with your answer.
A
(A: 56 nM, B: 6670 nM)
